This collection of values is drawn from patent US12312347B2.

assay: Pharmacokinetic evaluation in mice (IV and PO); format: in vivo, male CD-1 mice; conditions: male, CD-1, mouse, plasma, PO 10 mg/kg vs IV 2 mg/kg, read-out: F (bioavailability)
measured-endpoint: bioavailability (%)
The reply should be a number in %, with the unit left off.

Q) Data request, read-out bioavailability, for COc1nc(OC)c(F)c(Cc2c[nH]c3ncc(-c4cnn(CCO)c4)cc23)c1F [Embodiment 48]
A) 21.5

Q) Using the record for COc1cc(OC)c(F)c(Cc2c[nH]c3ncc(-c4cnn(CCO)c4)cc23)c1F [Embodiment 46] , report its bioavailability.
A) 86.6

====

target: human FGFR4 (Homo sapiens)
Sequence (P22455 22-802): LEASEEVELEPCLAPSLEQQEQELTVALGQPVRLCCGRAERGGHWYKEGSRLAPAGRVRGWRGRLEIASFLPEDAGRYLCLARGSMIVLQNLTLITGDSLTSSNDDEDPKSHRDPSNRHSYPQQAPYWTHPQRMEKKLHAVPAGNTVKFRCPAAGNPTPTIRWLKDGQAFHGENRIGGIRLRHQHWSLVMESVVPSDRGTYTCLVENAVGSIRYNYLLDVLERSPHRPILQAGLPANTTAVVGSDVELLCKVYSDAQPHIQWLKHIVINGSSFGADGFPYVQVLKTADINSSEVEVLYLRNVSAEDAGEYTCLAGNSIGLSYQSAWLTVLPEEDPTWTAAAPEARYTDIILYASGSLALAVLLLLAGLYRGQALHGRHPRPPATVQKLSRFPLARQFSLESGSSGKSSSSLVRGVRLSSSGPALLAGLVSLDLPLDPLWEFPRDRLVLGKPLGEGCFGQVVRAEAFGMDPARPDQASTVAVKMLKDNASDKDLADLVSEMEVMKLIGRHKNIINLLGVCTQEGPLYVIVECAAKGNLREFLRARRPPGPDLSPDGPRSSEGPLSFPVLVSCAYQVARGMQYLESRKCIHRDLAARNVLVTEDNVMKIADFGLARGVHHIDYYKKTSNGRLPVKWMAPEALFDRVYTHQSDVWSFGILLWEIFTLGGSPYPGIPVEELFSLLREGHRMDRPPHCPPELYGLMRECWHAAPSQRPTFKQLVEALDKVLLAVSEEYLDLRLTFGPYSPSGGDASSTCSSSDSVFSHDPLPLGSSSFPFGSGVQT
Counter-ions that a name gives are not always drawn.
Label t when IC50 is strictly below 0.009 µM; at or above that, label f.

Q) Is IC50 strictly under 0.009 µM for the entry COc1cc(OC)c(F)c(Cc2c[nH]c3ncc(-c4cn(C5CCN(C)CC5)nc4C#N)cc23)c1F [Hydrochloride of embodiment 43] ?
A) f

Q) Threshold test, IC50 < 0.009 µM: COc1cc(OC)c(F)c(Cc2c[nH]c3ncc(-c4ccc(N5CCN(C)CC5)nc4)cc23)c1F [Trifluoroacetate salt of embodiment 62]
A) t

Q) IC50 under 0.009 µM? Item: COc1cc(OC)c(F)c(Cc2c[nH]c3ncc(-c4c(C)nn(CCO)c4C)cc23)c1F [Hydrochloride of embodiment 34]
A) f

Q) Report whether reported IC50 is lower than 0.009 µM (strictly) for COc1cc(OC)c(F)c(Cc2c[nH]c3ncc(-c4cnn(C5CCN(C(C)=O)CC5)c4)cc23)c1F [Trifluoroacetate salt of embodiment 17]
A) t

Q) Lab note: IC50 threshold 0.009 µM. Does this molecule come in strictly under it? COc1cc(Cc2c[nH]c3ncc(-c4cnn(C5CCNCC5)c4)cc23)cc(OC)c1 [Trifluoroacetate salt of embodiment 11]
A) f
